test system: Acinetobacter baumanii/haemolyticus: Multidrug-resistant clinical isolate (AB-3167); experiment: MIC determination (CLSI), AB-3167; format: cell-based; conditions: Acinetobacter baumanii/haemolyticus multidrug-resistant clinical isolate AB-3167
parameter measured: AB-3167 MIC (µg/mL)
Expressed in µg/mL, but write only the number.

compound | AB-3167 MIC (µg/mL)
CSc1cccc(-c2ccc(CCC(C)(C(=O)NO)S(C)(=O)=O)cc2)c1 (stereo not shown) [Example 56] | 8

Let's switch to this compound now.
Exercise: Entry CC(CCc1ccc(-c2cc(F)c(OCCO)c(F)c2)cc1)(C(=O)NO)S(C)(=O)=O (stereo not shown) [Example 150] has what AB-3167 MIC?
Key: 32

###

test system: Acinetobacter baumanii/haemolyticus: Multidrug-resistant clinical isolate (AB-3167); test: MIC determination (CLSI), AB-3167; assay type: cell-based; conditions: Acinetobacter baumanii/haemolyticus multidrug-resistant clinical isolate AB-3167
parameter measured: AB-3167 MIC

molecule | parameter measured | result
CC(CCc1ccc(-c2ccc(CC#N)cc2)cc1)(C(=O)NO)S(C)(=O)=O (stereo not shown) | AB-3167 MIC | ≧64 mg/L
COc1cccc(-c2ccc(CCC(C)(C(=O)NO)S(C)(=O)=O)cc2)c1F (racemic) | AB-3167 MIC | 16 mg/L
C[C@@](CCc1ccc(-c2ccc(C(=O)CO)cc2)cc1)(C(=O)NO)S(C)(=O)=O | AB-3167 MIC | ≧64 mg/L
CC(C)(O)c1ccccc1-c1ccc(CCC(C)(C(=O)NO)S(C)(=O)=O)cc1 (stereo not shown) | AB-3167 MIC | ≧64 mg/L

###

system: Klebsiella pneumoniae: Ciprofloxacin-resistant isolate, ESBL, clinical isolate (KP-3700); assay: MIC determination (CLSI), KP-3700; format: cell-based
parameter measured: KP-3700 MIC

These recorded examples may help you get a feel for the data.
molecule | KP-3700 MIC
C[C@@](CCc1ccc(-c2cc3ccccc3[nH]2)cc1)(C(=O)NO)S(C)(=O)=O | 2 µg/mL
CC(CCc1ccc(OCc2cccnc2)cc1)(C(=O)NO)S(C)(=O)=O (centres unmarked) | ≧64 mg/L
CC(CCc1ccc(OCc2nc(C3CCCC3)no2)cc1)(C(=O)NO)S(C)(=O)=O (centres unmarked) | 32 µg/mL
CC(C)(O)Cc1ccc(-c2ccc(CCC(C)(C(=O)NO)S(C)(=O)=O)cc2)cc1 (centres unmarked) | 32 µg/mL
Cc1cccc(COc2ccc(CCC(C)(C(=O)NO)S(C)(=O)=O)cc2)c1 (centres unmarked) | 8 µg/mL

Exercise: Return KP-3700 MIC measured with Klebsiella pneumoniae: Ciprofloxacin-resistant isolate, ESBL, clinical isolate (KP-3700) given this molecule: CC(CCc1ccc(OCCCOCc2ccccc2)cc1)(C(=O)NO)S(C)(=O)=O (centres unmarked)
Key: ≧64 mg/L

Exercise: Okay, and CC(Oc1ccc(CCC(C)(C(=O)NO)S(C)(=O)=O)cc1)c1ccccc1 (centres unmarked) ?
Key: ≧64 mg/L

Exercise: Okay, and CC(CCc1ccc(OCC2CCOCC2)cc1)(C(=O)NO)S(C)(=O)=O (centres unmarked) ?
Key: ≧64 mg/L

Exercise: Okay, and CC(CCc1ccc(OCc2nc(-c3cccc(Cl)c3)no2)cc1)(C(=O)NO)S(C)(=O)=O (centres unmarked) ?
Key: 32 µg/mL

Exercise: Okay, and Cc1cccc(COc2ccc(CCC(C)(C(=O)NO)S(C)(=O)=O)cc2)c1F (centres unmarked) ?
Key: 8 µg/mL

###

MIC reference
tested on: Pseudomonas aeruginosa UI-18: Wild-type (PA-7); assay: MIC determination (CLSI), PA-7; assay type: cell-based; conditions: Pseudomonas aeruginosa; Table 3; read-out: PA-7 MIC

These recorded examples may help you get a feel for the data.
compound | result
CC(CCc1ccc(OCCc2ccccc2)cc1)(C(=O)NO)S(C)(=O)=O (stereo not shown) | ≥ 64 µg/mL
CCCCOc1ccc(CCC(C)(C(=O)NO)S(C)(=O)=O)cc1 (stereo not shown) | 8 µg/mL
CC(CCc1ccc(OCc2ccc(F)cc2C#N)cc1)(C(=O)NO)S(C)(=O)=O (stereo not shown) | ≥ 64 µg/mL

Exercise: Entry CC(CCc1ccc(OCc2nc(Cc3cc(F)ccc3F)no2)cc1)(C(=O)NO)S(C)(=O)=O (stereo not shown) has what MIC?
Key: ≥ 64 µg/mL

###

AB-3167 MIC reference
test system: Acinetobacter baumanii/haemolyticus: Multidrug-resistant clinical isolate (AB-3167); assay: MIC determination (CLSI), AB-3167; format: cell-based; settings: Acinetobacter baumanii/haemolyticus multidrug-resistant clinical isolate AB-3167
Expressed in µg/mL, but write only the number.

Exercise: Return AB-3167 MIC measured with Acinetobacter baumanii/haemolyticus: Multidrug-resistant clinical isolate (AB-3167) given this compound: CC(CCc1ccc(-c2ccc3ncccc3c2)c(F)c1)(C(=O)NO)S(C)(=O)=O (centres unmarked)
Key: 32

Exercise: Okay, and C[C@@](CCc1ccc(-c2ccc(F)cc2)cc1)(C(=O)NO)S(C)(=O)=O ?
Key: 8

Exercise: Okay, and CC(CCc1ccc(OCc2ccccc2)cc1)(C(=O)NO)S(C)(=O)=O (centres unmarked) ?
Key: 16

Exercise: Okay, and CC(CCc1ccc(-c2ccc(C#N)s2)cc1)(C(=O)NO)S(C)(=O)=O (racemic) ?
Key: 8

Exercise: Okay, and CC(C)c1cccc(-c2ccc(CCC(C)(C(=O)NO)S(C)(=O)=O)cc2)c1 (centres unmarked) ?
Key: 4

###

tested on: Klebsiella pneumoniae: Ciprofloxacin-resistant isolate, ESBL, clinical isolate (KP-3700); test: MIC determination (CLSI), KP-3700; assay type: cell-based
parameter measured: KP-3700 MIC (µg/mL)
Expressed in µg/mL, but write only the number.

molecule | KP-3700 MIC, µg/mL
Cc1cc(-c2ccc(F)cc2)ccc1CCC(C)(C(=O)NO)S(C)(=O)=O (centres unmarked) | 4
CC(CCc1ccc(-c2ccccc2)cc1F)(C(=O)NO)S(C)(=O)=O (centres unmarked) | 4
C[C@@](CCc1ccc(-c2cnc3ccccc3c2)cc1)(C(=O)NO)S(C)(=O)=O | 8
CS(=O)(=O)C(CCc1ccc(-c2ccc(F)cc2)cc1)C(=O)NO (centres unmarked) | 32

Exercise: Entry CC(CCc1ccc(-c2ccc(F)cc2F)cc1)(C(=O)NO)S(C)(=O)=O (racemic) has what KP-3700 MIC?
Key: 4

Exercise: Okay, and CN(C)c1ccc(-c2ccc(CCC(C)(C(=O)NO)S(C)(=O)=O)cc2)cn1 (centres unmarked) ?
Key: 16

###

KP-3700 MIC reference
system: Klebsiella pneumoniae: Ciprofloxacin-resistant isolate, ESBL, clinical isolate (KP-3700); assay: MIC determination (CLSI), KP-3700; format: cell-based
Expressed in µg/mL, but write only the number.

These recorded examples may help you get a feel for the data.
compound | measurement target | KP-3700 MIC (µg/mL)
CC(CCc1ccc(-c2ccc(F)cc2)c(F)c1)(C(=O)NO)S(C)(=O)=O (centres unmarked) [Example 167] | Klebsiella pneumoniae: Ciprofloxacin-resistant isolate, ESBL, clinical isolate (KP-3700) | 4
CC(CCc1ccc(OCc2ccc(C#N)cc2)cc1)(C(=O)NO)S(C)(=O)=O (centres unmarked) [Example 233] | Klebsiella pneumoniae: Ciprofloxacin-resistant isolate, ESBL, clinical isolate (KP-3700) | 16
CC(CCc1ccc(C2=CCCCCC2)cc1)(C(=O)NO)S(C)(=O)=O (centres unmarked) [Example 13] | Klebsiella pneumoniae: Ciprofloxacin-resistant isolate, ESBL, clinical isolate (KP-3700) | 4

Let's switch to this compound now.
Exercise: Entry CC(CCc1ccc(OCc2nc(C3CCC3)no2)cc1)(C(=O)NO)S(C)(=O)=O (centres unmarked) [Example 300] has what KP-3700 MIC?
Key: 32

###

test system: Acinetobacter baumanii/haemolyticus: Multidrug-resistant clinical isolate (AB-3167); assay: MIC determination (CLSI), AB-3167; format: cell-based; conditions: Acinetobacter baumanii/haemolyticus multidrug-resistant clinical isolate AB-3167
parameter measured: AB-3167 MIC

These recorded examples may help you get a feel for the data.
compound | measurement target | AB-3167 MIC
COc1ccc(-c2ccc(CCC(C)(C(=O)NO)S(C)(=O)=O)cc2)cc1 (racemic) [Example 55] | Acinetobacter baumanii/haemolyticus: Multidrug-resistant clinical isolate (AB-3167) | 16 µg/mL
COc1cccc(F)c1-c1ccc(CCC(C)(C(=O)NO)S(C)(=O)=O)cc1 (centres unmarked) [Example 41] | Acinetobacter baumanii/haemolyticus: Multidrug-resistant clinical isolate (AB-3167) | ≧64 mg/L
Cc1ccc(-c2ccc(CCC(C)(C(=O)NO)S(C)(=O)=O)cc2)cc1C (centres unmarked) [Example 83] | Acinetobacter baumanii/haemolyticus: Multidrug-resistant clinical isolate (AB-3167) | 8 µg/mL
CC(C)Cc1ccc(-c2ccc(CCC(C)(C(=O)NO)S(C)(=O)=O)cc2)cc1 (centres unmarked) [Example 63] | Acinetobacter baumanii/haemolyticus: Multidrug-resistant clinical isolate (AB-3167) | 8 µg/mL
Cc1cc(C#N)ccc1-c1ccc(CCC(C)(C(=O)NO)S(C)(=O)=O)cc1 (centres unmarked) [Example 91] | Acinetobacter baumanii/haemolyticus: Multidrug-resistant clinical isolate (AB-3167) | 16 µg/mL
C[C@@](CCc1ccc(-c2ccc(CC(=O)N3CCC(O)CC3)cc2)cc1)(C(=O)NO)S(C)(=O)=O [Example 191] | Acinetobacter baumanii/haemolyticus: Multidrug-resistant clinical isolate (AB-3167) | ≧64 mg/L
CC(CCc1ccc(-c2ccc(OCCN)cc2)cc1)(C(=O)NO)S(C)(=O)=O (centres unmarked) [Example 116] | Acinetobacter baumanii/haemolyticus: Multidrug-resistant clinical isolate (AB-3167) | ≧64 mg/L
CC(CCc1ccc(-c2ccc(O)cc2)cc1F)(C(=O)NO)S(C)(=O)=O (centres unmarked) [Example 178] | Acinetobacter baumanii/haemolyticus: Multidrug-resistant clinical isolate (AB-3167) | 8 µg/mL
CC(CCc1ccc(-c2ccc(Cl)cc2Cl)cc1)(C(=O)NO)S(C)(=O)=O (racemic) [Example 70] | Acinetobacter baumanii/haemolyticus: Multidrug-resistant clinical isolate (AB-3167) | 32 µg/mL
CC(CCc1ccc(-c2ccccc2C#N)cc1)(C(=O)NO)S(C)(=O)=O (centres unmarked) [Example 105] | Acinetobacter baumanii/haemolyticus: Multidrug-resistant clinical isolate (AB-3167) | ≧64 mg/L

Exercise: Entry Cc1csc(-c2ccc(CCC(C)(C(=O)NO)S(C)(=O)=O)cc2)c1 (centres unmarked) [Example 46] has what AB-3167 MIC?
Key: ≧64 mg/L

Exercise: Okay, and CC(CCc1ccc(-c2ccc(C#N)cn2)cc1)(C(=O)NO)S(C)(=O)=O (centres unmarked) [Example 129] ?
Key: ≧64 mg/L

Exercise: Okay, and CC(CCc1ccc(-c2ccc(C#N)cc2F)cc1)(C(=O)NO)S(C)(=O)=O (centres unmarked) [Example 128] ?
Key: ≧64 mg/L

Exercise: Okay, and CSc1ccc(-c2ccc(CCC(C)(C(=O)NO)S(C)(=O)=O)cn2)cc1 (centres unmarked) [Example 121] ?
Key: ≧64 mg/L

Exercise: Okay, and Cn1ccnc1-c1ccc(-c2ccc(CCC(C)(C(=O)NO)S(C)(=O)=O)cc2)cc1 (centres unmarked) [Example 92] ?
Key: ≧64 mg/L

Exercise: Okay, and CN(C)c1ccc(-c2ccc(CCC(C)(C(=O)NO)S(C)(=O)=O)cc2)cn1 (centres unmarked) [Example 35] ?
Key: ≧64 mg/L

Exercise: Okay, and C[C@](CCc1ccc(-c2ccc3c(c2)OCCO3)cc1)(C(=O)NO)S(C)(=O)=O [Example 175] ?
Key: ≧64 mg/L
